Field: apparent KD of MS2 coat protein. Provide a value for each of the sequences that follow.
System: MS2 coat protein
Test: apparent KD of MS2 coat protein; designed switch direction (-1 OFF switch, 1 ON switch): -1; higher = weaker reporter binding
Details: input ligand: microRNA oligo, concentration not stated
API: value field is a number in nM; no unit string.

Entry UACCUGAGGCUUUGCUUUAGGCUUACAUGAGGAUCACCCAUGUAGGAUAUGGUAGGCAAAGCUUACCAGAAGGACAUGGAAAUU [Mat - Exclusion NG 3 - Mod of JL - D21] (Eterna round: R96, puzzle: Exclusion NG 3) has what apparent KD of MS2 coat protein?
13.2

Entry GACCUAUAGGUAGGAUAUCAUUGCGAUUAGCUAUGAGAAGGGCCACAUGAGGAUCACCCAUGUCCUCCAAUUAACCAUAAGGUC [Fiskers ExNg1 - 6] (Eterna round: R96, puzzle: Exclusion NG 1) has what apparent KD of MS2 coat protein?
26.7

Entry ACAUGAGGAUCACCCAUGUGCCCAUCUAGCACAUGUCCUCGCUAGGAUAUGUAGGCCUCGACGCCGCAGAAGGAGCUAAAAGAG [Raatlaan] (Eterna round: R96, puzzle: Exclusion NG 3) has what apparent KD of MS2 coat protein?
44.6

----------
Tested on: K4 kissing-loop RNA reporter;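 further: bound reporter read as fluorescence of individual clusters on recovered sequencing chips by microscopy, with normalized cluster intensities fitted with a binding model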
Test: apparent KD of K4 kissing-loop reporter; higher = weaker reporter binding
Details: Eterna round: R107; input ligand: theophylline 20 uM
PROPERTY LABEL: apparent KD of K4 kissing-loop reporter (nM)
API: value field is a number in nM; no unit string.

Entry UCUCUUCUCAGUGAUGUUGAGUAAUCGGAAGGAGCGCGUGAAAACGCAGGUAGGUCGCCGAUUUGUGAAGUAUCUUCGCAAGAGA [Arginine A K4 26] has what apparent KD of K4 kissing-loop reporter?
441

Entry GUCUGAUGCGUUGAUACCAGUCCUUCAGUGAUGUUGCAAGCGCGGCCUAUCAAGCAAUCCGACCCUUGGCAGCAAUAGGUCCGAA [theeternabot_exclusion_KL_Theo_B_9] has what apparent KD of K4 kissing-loop reporter?
872

Entry UUCUUGAUGGAAACAUCGAGUAUUACUGAUACCAGUAUCGAUAGAUACCCUUGGCAGCAGAAUCAGUAAUAACGAGUGAUGUUCG [Ex Theophylline A K4 5] has what apparent KD of K4 kissing-loop reporter?
567

Entry UGUCAUGGAAACAUGAACGUUAAAAUAAAUCGAGGACCGGUACGGCCGCCACUCGUAUAGCGGUCAGUGAUGUUGACUGUAAUAA [KL-SSTryp-A form2 sub10] has what apparent KD of K4 kissing-loop reporter?
116

Entry AGGUCCGAGCCUGUAAAGGCUCGGACCUGUUAGGAUAUGACGUUAUUCAGAAGGGAUGGGUGGAGUGAUGUUCCACCCGCAAGGG [#2 Same State - FMN A Attempt #5 (HarryS)] has what apparent KD of K4 kissing-loop reporter?
116

----------
Test system: MS2 coat protein
Assay: apparent KD of MS2 coat protein; higher = weaker reporter binding
Conditions: Eterna round: R107; input ligand: theophylline 20 uM
PROPERTY LABEL: apparent KD of MS2 coat protein (nM)
API: value field is a number in nM; no unit string.

Entry CUCAUCCACGCGGCCGCCACUAUAUUGUGGUGUGAAUGUGUCGUAAUACAUGAGGAUCACCCAUGUAGGACCGGGCGUGGAUGAG [#08 Exclusion Tryptophan B] has what apparent KD of MS2 coat protein?
30.9

Entry GAUACCAUGAUCCUCCUGGUAUCGGCUGAUACCAGCCAGCUGACUGGCCCUUGGCAGCAGCAUACAUGAGGAUCACCCAUGUUAA [(T)''-(M)'-(T)'-(Theo)-(Ms2)_Design4] has what apparent KD of MS2 coat protein?
163

Entry AACAUGAGGGCGGCCGCCACUCCAUGAACAUGAGGAUCACCCAUGUUGAGGAUCACCCAUGUUGUGAGGACCGGGCCACAUGAGG [Exclusion Tryptophan B 3] has what apparent KD of MS2 coat protein?
66.1

Entry UUCGCUGAGGGAAGGAGCGUGAAGACAUGAGGAUCACCCAUGUAGAGGCGCCGAAGGCGUUCGCAGGUAGGUCGCCCUCAGUGAG [#1 Same State - Arginine B Attempt #23 (HarryS)] has what apparent KD of MS2 coat protein?
24.7

Entry UCAUAAGUACCGGUCCUCAGAUCCUCAUGACGAGGACCGGUACGGCCGCCACUCGAAACAUGAGGAUCACCCAUGUAAUAAUAUU [Brourdmod11] has what apparent KD of MS2 coat protein?
28.5

----------
Test system: MS2 coat protein
Assay: apparent KD of MS2 coat protein, switch OFF state (with FMN for OFF switches, without FMN for ON switches); designed switch direction (-1 OFF switch, 1 ON switch): -1; higher = weaker reporter binding
Conditions: FMN input: 0 or 200 uM; Eterna round: R93 (includes R88 designs)
PROPERTY LABEL: apparent KD of MS2 coat protein (nM)
API: value field is a number in nM; no unit string.

Entry AAAAAGGAAGGAUAUACGAACAUGUCAAAAGACGUGAAGGGACAUGAGGAUCACCCAUGUAGAAGGUCCAAAAA [JL Half Open 23] has what apparent KD of MS2 coat protein?
99.6

Entry AAAAAAGGAGGAUAUACGAACAUGUCAAAAGACGUGAAGGGACAUGAGGAUCACCCAUGUAGAAGGCCUAAAAA [JL Part Open 34] has what apparent KD of MS2 coat protein?
60.8

Entry AAAAAGCGAGGAUAUACAUAGCUAAGACAAAUAAGCAAGGGACAUGAGGAUCACCCAUGUAGAAGGCGCAAAAA [Exclusion 2-01... 60% 1] has what apparent KD of MS2 coat protein?
97.3

Entry AAUAACACAGGAUAUACUAAAGAAAUGAAAAGAAAUAAAGAACAUGAGGAUCACCCAUGUAGAAGGGUGAAUAA [Shenshek] has what apparent KD of MS2 coat protein?
186

Entry ACAAGCCUAGGAUAUACAUGAGGAUCACCCAUGUGAAAGAACCGGUGACUCCUGGAAAGUAGAAGGAGGAAUCG [Biatla] has what apparent KD of MS2 coat protein?
40.1

Entry AAAAAACAUGAGGAUCACCCAUGUGAGGAUAUGAAAAAACAAAAAAAAAAGUAAACAAUCAGAAGGCACAACAA [JR_Exc--1_Sub1211] has what apparent KD of MS2 coat protein?
24.4

Entry AACUGACAUGAGGAUCACCCAUGUCAGGAUAUGCUUCAUAAAACAAAAACAAAAUGAUGCAGAAGGGACAUGAA [Design 26 :P Sub-opt 2] has what apparent KD of MS2 coat protein?
14.6

----------
Field: apparent KD of MS2 coat protein. Provide a value for each of the sequences that follow.
Tested on: MS2 coat protein
Test: apparent KD of MS2 coat protein; designed switch direction (-1 OFF switch, 1 ON switch): 1; higher = weaker reporter binding
Conditions: input ligand: none
API: value field is a number in nM; no unit string.

Entry AAUUAACAUGAGGAUCACCCAUGUCGUAUUAUGGGAGGAUAUACGUGGACCGUAGUCCGCGUAGAAGGCCUAAUUA [Mat - Same State 1 - Mod of JL - D21] (Eterna round: R96, puzzle: Same State 1) has what apparent KD of MS2 coat protein?
38.2

Entry AAUUGUUCCUGAGGAUAUCAGUAGUUUGCUUUUUGAGAAGGCAGUACAUGAGGAUCACCCAUGUUGUGGUUUGAUAGAAUGAUA [JR_SSNG1_Sub005] (Eterna round: R96, puzzle: Same State NG 1) has what apparent KD of MS2 coat protein?
180

Entry UAAAGAUAGCGAGGAUAUCGCGAGGAUCACCCGUGAGAAGGCGCAGAGCCGAGGAUCACCCGGCUGAUCCUGAGGAGGAGGUCA (Eterna round: R96, puzzle: Same State NG 1) has what apparent KD of MS2 coat protein?
249

Entry UCUAUUGUGGUAGGAUAUCUAGGAUAUGGGAAGAGCUAAGCUUGGAAGUCACUUCACCCAGAAGGAGAGAAGGACCAGAGACUU [pwkr ssNG2 2FMN + F9.7] (Eterna round: R96, puzzle: Same State NG 2) has what apparent KD of MS2 coat protein?
475

Entry GCCGCGUUUCGCGCCUACAUGAGGAUCACCCAUGUUUGUAGGCAGGAUAUCGUUUGCUUUGCAAUCGAGAAGGGCUGUUGUGGC [salish99_SSNG3_R04_014] (Eterna round: R96, puzzle: Same State NG 3) has what apparent KD of MS2 coat protein?
56.6

Entry UGAAUAGUUACAGGAUAUGAGUUGUAAAUUGGGUCAGAAGGGUGGGUGUUCUGCGCGGUGUGUUACAUGAGGAUCACCCAUGUU [SameState NG1 #29] (Eterna round: R96, puzzle: Same State NG 1) has what apparent KD of MS2 coat protein?
377

Entry GUUACAUGAGGAUCACCCAUGUAUGUGUGGGAGUAAGUGUCUUAGGAUAUCUAGUAUUUAAGUUAAGAGAAGGAAGAUUGUUGU [JMF's solution 62] (Eterna round: R96, puzzle: Same State NG 3) has what apparent KD of MS2 coat protein?
114

Entry GCACAUGAGGAUCACCCAUGUGCGCUUGGUUGUCCAAGCGCACAGGAUAUACCUCCCAAUGGGAGGUAGAAGGGUGAAAAGAAA [Orraveceat] (Eterna round: R96, puzzle: Same State NG 3) has what apparent KD of MS2 coat protein?
16

Entry AUUGCUUUCGCAGGAUAUGAUGCGAAAAUUGCGUCAGAAGGGUGGAGUCUCUCAUUGCAAGAGGACAUGAGGAUCACCCAUGUC [SameState NG1 #86] (Eterna round: R96, puzzle: Same State NG 1) has what apparent KD of MS2 coat protein?
322

Entry GAGAGAGGGUGAGGAUAUGCAGUAAUAAUGAUAGCAGAAGGCACAGACAUGAGGAUCACCCAUGUGGGAAUAAUCCAGAGAGAG [Parity 2 - Jieux - Same State NG 1] (Eterna round: R96, puzzle: Same State NG 1) has what apparent KD of MS2 coat protein?
305

Entry GCGAGCGUACUUGCUACAUGAGGAUCACCCAUGUUUCAUGGACAGGAUAUGGUACCGUUUCGGUACCAGAAGGGUUCACAUGUG [JL SSNG3 3.81] (Eterna round: R96, puzzle: Same State NG 3) has what apparent KD of MS2 coat protein?
92.1

Entry AACAAAUACACAGGAUAUACAGCGGCAGCCACUGUAGAAGGGUGGGCGGGUUCCAACAUGAGGAUCACCCAUGUACCCAAUAAA [Gerace] (Eterna round: R96, puzzle: Same State NG 1) has what apparent KD of MS2 coat protein?
699

Entry GGUGCAAUUAACGCCUACAUGAGGAUCACCCAUGUAUGUAGGCAGGAUAUCGUUUGCUUUGCAAACGAGAAGGGCUGUAGUACC [JL SSNG3 1.14] (Eterna round: R96, puzzle: Same State NG 3) has what apparent KD of MS2 coat protein?
84.5

Entry AGGCUCAGAGCAGGAUAUAUGUAAUAACAUGAGGAUCACCCAUGUGUCGAGCUUCGGCUCGACACAUAGAAGGGCUCUGAGCCA [SSNG2/2-B1] (Eterna round: R96, puzzle: Same State NG 2) has what apparent KD of MS2 coat protein?
45.9

Entry AAAAGAAACACAGGAUAUACCGCACUUAACGCGGUAGAAGGGUGGGACAUGAGGAUCACCCAUGUGGUCUGGGCGCCAGACCGC [Esratean] (Eterna round: R96, puzzle: Same State NG 1) has what apparent KD of MS2 coat protein?
22

Entry GAUCGUUUGAUAGGAUAUCGCUAUACAUGAGGAUCACCCAUGUUUACCACGCUGGUUUUUCAUACCGAGAAGGAUUCUGAUGAU [salish99_SSNG02_r04_009] (Eterna round: R96, puzzle: Same State NG 2) has what apparent KD of MS2 coat protein?
36.9

Entry GGCGGAUCCACAUGAGGAUCACCCAUGUAGCGGAGACGCAAUGAGGAUAUCGAUGGGUUUCCCGUCGAGAAGGCAUAAACCGCC [JL SSNG3 3.93 mod 2] (Eterna round: R96, puzzle: Same State NG 3) has what apparent KD of MS2 coat protein?
16

Entry AGUCCAGCCUGAGCUGGACAAAAGCAUGUACAUGAGGAUCACCCAUGUUCAUGUACAAGCUUUUUGCUCGUCUUGAA [salish99_208a_r3_095x] (Eterna round: R96, puzzle: Sensor for hsa-mir-208a) has what apparent KD of MS2 coat protein?
572
